B1: ZNF449 (parent)
chain: FQEYDTDCEVFRQRFRQFQYREAA

Variants of: B1
assay.method.text: protein stability index of a GFP-peptide fusion (GPS, HEK-293T) (PSI 1-6); higher = more stable;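 further: lentivirally expressed fusions sorted by FACS into six bins by GFP to DsRed ratio, PSI derived from sequencing read proportions per bin multiplied by bin number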
experimental.conditions: c terminus: a fixed tail appended
measured.parameter: protein stability index
Field format: numeric only.

Known protein stability index results, listed for orientation:
[
  {
    "variant.label": "R12W",
    "protein stability index": 1.94
  },
  {
    "variant.label": "D7E",
    "protein stability index": 2.26
  },
  {
    "variant.label": "E22P",
    "protein stability index": 1.72
  },
  {
    "variant.label": "Y20T",
    "protein stability index": 3.46
  },
  {
    "variant.label": "F11Y",
    "protein stability index": 2.78
  }
]

Query block: Consider the variant shown here: A24T What is its recorded protein stability index?
Result block: 2.35

Query block: Using the record for E22S , report its protein stability index.
Result block: 2.07

Query block: protein stability index for Q2S ?
Result block: 3.32

Query block: So what does the record say about protein stability index for F1L ?
Result block: 3.19

Query block: Recorded protein stability index of Q19A , please.
Result block: 2.81

Query block: Reported protein stability index for Q17C : what is it?
Result block: 2

Query block: Please look up its protein stability index: Q13Y
Result block: 1.75

Query block: So what's the measured protein stability index for this one? D7L
Result block: 1.93

Query block: If you can, please state the reported protein stability index value of R21W .
Result block: 1.75
